# MEASUREMENT_TARGET: HLA-A*30:02
# ASSAY_METHOD_TEXT: IEDB peptide-MHC binding, purified MHC/competitive/radioactivity; filed as Kd, often an IC50 or EC50 that approximates it; bounds were set here for any values at or beyond the usual limits of such assays
# ASSAY_CONTEXT: source organism: Plasmodium falciparum 3D7
pKd: −log10 of the molar value.
Entry class follows pKd: low value = under 6, medium value = from 6 up to 7, high value = 7 and over

Below are worked cases with known answers.
Ask: Form: Item = `LYYLFNQHI` ; Class = ?
Reply: low value

Ask: Which of the defined bands does the recorded pKd of `YYNNFNNNY` sit within?
Reply: high value

Ask: Which bin should I file `DFFLKSKFNI` under?
Reply: low value

Ask: Using the reported pKd, which band applies to `SSPLFNNFY` ?
Reply: high value

Ask: Which category does the recorded pKd put `NHEQKLSEY` in?
Reply: low value

Others:
Ask: Category of `KYEALIKLL` , please.
Reply: low value

Ask: Band for the recorded pKd of `IYYFDGNSW` ?
Reply: low value

Ask: Kindly identify the class of `ELEASISGKY` .
Reply: medium value

Ask: Which class is correct for the following sequence? `NFINFIKVL`
Reply: low value

Ask: Category of `FQAAESNERY` :
Reply: medium value

Ask: Hey, which category is `SSFFMNRFY` in, do you know?
Reply: high value

Ask: For `NVDQQNDMY` , which pKd bin applies?
Reply: low value

Ask: Category lookup for the sequence `MFVPKYFEL`
Reply: low value
